molecular target: Voltage-dependent T-type calcium channel subunit alpha-1G (Homo sapiens, UniProt O43497); assay: Channel blocking activity at recombinant human CaV 3.1 channel expressed in HEK293 cells assessed as inhibition of Ca2+ flux preincubated for 3 mins followed by CaCl2 addition by fluo-4 dye-based FLIPR assay
Sequence (O43497 whole entry): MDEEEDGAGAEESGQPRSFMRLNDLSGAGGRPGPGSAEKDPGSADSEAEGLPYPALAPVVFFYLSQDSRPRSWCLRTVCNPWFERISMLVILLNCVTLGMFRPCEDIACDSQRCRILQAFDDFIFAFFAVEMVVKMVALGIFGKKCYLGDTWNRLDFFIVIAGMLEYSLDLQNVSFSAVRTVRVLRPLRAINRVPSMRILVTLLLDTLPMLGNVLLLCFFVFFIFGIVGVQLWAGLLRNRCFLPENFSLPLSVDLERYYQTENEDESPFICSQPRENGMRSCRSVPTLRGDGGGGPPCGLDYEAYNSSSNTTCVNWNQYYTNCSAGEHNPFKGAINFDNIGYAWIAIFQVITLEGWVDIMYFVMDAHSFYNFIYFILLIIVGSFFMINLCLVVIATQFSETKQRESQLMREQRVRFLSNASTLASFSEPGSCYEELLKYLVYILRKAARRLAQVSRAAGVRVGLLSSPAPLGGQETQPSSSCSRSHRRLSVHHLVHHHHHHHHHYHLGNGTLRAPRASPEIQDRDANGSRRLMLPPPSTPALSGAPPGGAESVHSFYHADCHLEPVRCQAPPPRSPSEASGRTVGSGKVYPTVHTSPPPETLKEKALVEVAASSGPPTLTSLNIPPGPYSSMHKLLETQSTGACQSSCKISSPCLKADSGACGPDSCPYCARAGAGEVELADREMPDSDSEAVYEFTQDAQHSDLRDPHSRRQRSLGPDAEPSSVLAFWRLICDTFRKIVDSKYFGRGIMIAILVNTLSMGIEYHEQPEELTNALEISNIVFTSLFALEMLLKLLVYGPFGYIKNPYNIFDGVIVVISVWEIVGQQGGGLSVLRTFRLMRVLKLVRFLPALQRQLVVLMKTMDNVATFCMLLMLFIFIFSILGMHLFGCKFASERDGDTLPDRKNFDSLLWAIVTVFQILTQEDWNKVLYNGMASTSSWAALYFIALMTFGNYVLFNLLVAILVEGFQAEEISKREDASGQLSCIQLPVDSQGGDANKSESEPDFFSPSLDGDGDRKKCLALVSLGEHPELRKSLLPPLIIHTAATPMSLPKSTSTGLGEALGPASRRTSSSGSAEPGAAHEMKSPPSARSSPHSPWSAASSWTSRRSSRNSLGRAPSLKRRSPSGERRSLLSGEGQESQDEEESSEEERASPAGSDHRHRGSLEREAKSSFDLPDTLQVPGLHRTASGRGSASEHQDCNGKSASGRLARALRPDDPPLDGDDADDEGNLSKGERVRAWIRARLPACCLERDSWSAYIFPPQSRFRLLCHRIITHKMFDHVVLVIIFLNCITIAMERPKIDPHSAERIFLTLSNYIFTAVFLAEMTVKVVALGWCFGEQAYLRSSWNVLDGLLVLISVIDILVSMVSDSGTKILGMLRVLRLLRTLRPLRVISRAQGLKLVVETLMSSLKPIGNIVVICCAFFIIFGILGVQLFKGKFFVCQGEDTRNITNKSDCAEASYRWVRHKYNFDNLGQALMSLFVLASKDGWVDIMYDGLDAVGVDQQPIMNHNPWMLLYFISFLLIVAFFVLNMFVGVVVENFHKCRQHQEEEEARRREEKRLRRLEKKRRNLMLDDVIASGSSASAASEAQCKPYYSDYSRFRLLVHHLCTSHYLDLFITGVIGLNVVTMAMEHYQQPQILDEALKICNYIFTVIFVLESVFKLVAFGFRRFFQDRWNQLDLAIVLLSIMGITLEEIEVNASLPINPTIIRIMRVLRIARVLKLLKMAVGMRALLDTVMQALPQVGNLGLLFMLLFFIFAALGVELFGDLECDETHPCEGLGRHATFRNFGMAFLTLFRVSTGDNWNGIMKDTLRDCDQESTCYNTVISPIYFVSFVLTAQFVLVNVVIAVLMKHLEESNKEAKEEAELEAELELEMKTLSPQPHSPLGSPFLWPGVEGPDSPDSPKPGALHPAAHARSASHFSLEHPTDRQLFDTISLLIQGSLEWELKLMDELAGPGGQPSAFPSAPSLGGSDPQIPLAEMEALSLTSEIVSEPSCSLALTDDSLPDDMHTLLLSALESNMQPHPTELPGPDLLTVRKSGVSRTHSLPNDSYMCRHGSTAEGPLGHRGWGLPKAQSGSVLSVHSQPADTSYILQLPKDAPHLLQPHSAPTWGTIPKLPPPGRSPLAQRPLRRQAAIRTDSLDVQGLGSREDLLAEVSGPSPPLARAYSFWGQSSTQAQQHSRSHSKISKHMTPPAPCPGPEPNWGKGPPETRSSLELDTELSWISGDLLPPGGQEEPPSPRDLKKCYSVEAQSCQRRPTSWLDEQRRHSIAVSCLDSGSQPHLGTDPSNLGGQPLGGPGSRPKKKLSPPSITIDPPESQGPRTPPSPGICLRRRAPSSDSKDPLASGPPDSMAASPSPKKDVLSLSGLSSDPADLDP
pIC50: −log10 of the molar value.
Examples of compounds with documented pIC50 follow.

COMPOUND | TARGET_DESC | CENSORING_QUALIFIER | pIC50
C[C@H]1c2ccccc2N(Cc2ccccc2)[C@@H](C)CN1C(=O)NCc1ccccc1 (racemic) | Voltage-dependent T-type calcium channel subunit alpha-1G (Homo sapiens, UniProt O43497) | = | 6.53
C[C@@H]1CN(CCOC(C)(C)C)c2ccccc2[C@H](C)N1C(=O)Nc1cccnc1 (racemic) | Voltage-dependent T-type calcium channel subunit alpha-1G (Homo sapiens, UniProt O43497) | = | 6.97
C[C@@H]1CN(Cc2ccccc2)c2ccncc2[C@H](C)N1C(=O)NCc1ccccc1 (racemic) | Voltage-dependent T-type calcium channel subunit alpha-1G (Homo sapiens, UniProt O43497) | = | 5.20
C[C@@H]1CN(Cc2ccccc2)c2cnccc2[C@H](C)N1C(=O)Nc1cccnc1 (racemic) | Voltage-dependent T-type calcium channel subunit alpha-1G (Homo sapiens, UniProt O43497) | = | 6.44
C[C@@H]1CN(Cc2ccccc2)c2ncccc2[C@H](C)N1C(=O)NCc1ccccc1 (racemic) | Voltage-dependent T-type calcium channel subunit alpha-1G (Homo sapiens, UniProt O43497) | = | 7.82
CC(C)CCN1C[C@@H](C)N(C(=O)CCc2cccnc2)[C@@H](C)c2c(F)cccc21 (racemic) | Voltage-dependent T-type calcium channel subunit alpha-1G (Homo sapiens, UniProt O43497) | = | 7.35
C[C@@H]1CN(Cc2ccccc2)c2ccccc2CN1C(=O)NCc1ccccc1 (racemic) | Voltage-dependent T-type calcium channel subunit alpha-1G (Homo sapiens, UniProt O43497) | = | 6.99
C[C@@H]1CN(Cc2ccc(F)c(F)c2)c2ccccc2[C@H](C)N1C(=O)Nc1cccnc1 (racemic) | Voltage-dependent T-type calcium channel subunit alpha-1G (Homo sapiens, UniProt O43497) | = | 7.89
C[C@@H]1CN(Cc2ccccc2)c2ccccc2C(=O)N1CCc1ccccc1 (racemic) | Voltage-dependent T-type calcium channel subunit alpha-1G (Homo sapiens, UniProt O43497) | = | 6.17
C[C@@H]1CN(Cc2ccc(C(F)(F)F)o2)c2ccccc2[C@H](C)N1C(=O)Nc1cccnc1 (racemic) | Voltage-dependent T-type calcium channel subunit alpha-1G (Homo sapiens, UniProt O43497) | = | 8.40
C[C@@H]1CN(Cc2ccccc2)c2ccccc2[C@H](C)N1C(=O)CCc1cccnc1 (racemic) | Voltage-dependent T-type calcium channel subunit alpha-1G (Homo sapiens, UniProt O43497) | = | 7.51
C[C@H]1c2ccccc2N(Cc2ccccc2)CCN1C(=O)NCc1ccccc1 (racemic) | Voltage-dependent T-type calcium channel subunit alpha-1G (Homo sapiens, UniProt O43497) | = | 6.71
C[C@@H]1CN(Cc2ccccc2)c2cccnc2[C@H](C)N1C(=O)NCc1ccccc1 (racemic) | Voltage-dependent T-type calcium channel subunit alpha-1G (Homo sapiens, UniProt O43497) | = | 6.22
C[C@@H]1CN(Cc2ccccc2)c2cc(F)cc(F)c2[C@H](C)N1C(=O)Nc1cccnc1 (racemic) | Voltage-dependent T-type calcium channel subunit alpha-1G (Homo sapiens, UniProt O43497) | = | 7.92
C[C@@H]1CN(Cc2cccnc2)c2ccccc2[C@H](C)N1C(=O)NCc1ccccc1 (racemic) | Voltage-dependent T-type calcium channel subunit alpha-1G (Homo sapiens, UniProt O43497) | = | 6.32
C[C@@H]1CN(Cc2ccccc2)c2cccc(F)c2[C@H](C)N1C(=O)CCc1cccnc1 (racemic) | Voltage-dependent T-type calcium channel subunit alpha-1G (Homo sapiens, UniProt O43497) | = | 7.33
C[C@@H]1CN(Cc2cccc(F)c2)c2ccccc2[C@H](C)N1C(=O)Nc1cccnc1 (racemic) | Voltage-dependent T-type calcium channel subunit alpha-1G (Homo sapiens, UniProt O43497) | = | 8.10
C[C@@H]1CN(Cc2ccccc2)c2ccccc2[C@H](C)N1C(=O)Cc1cncs1 (racemic) | Voltage-dependent T-type calcium channel subunit alpha-1G (Homo sapiens, UniProt O43497) | = | 7.47
COc1cccc2c1[C@H](C)N(C(=O)Nc1cccnc1)[C@H](C)CN2Cc1ccccc1 (racemic) | Voltage-dependent T-type calcium channel subunit alpha-1G (Homo sapiens, UniProt O43497) | = | 6.73
C[C@@H]1CN(Cc2ccncc2)c2ccccc2[C@H](C)N1C(=O)NCc1ccccc1 (racemic) | Voltage-dependent T-type calcium channel subunit alpha-1G (Homo sapiens, UniProt O43497) | < | 5.14
C[C@@H]1CN(Cc2ccccc2)c2cc(F)ccc2[C@H](C)N1C(=O)Nc1cccnc1 (racemic) | Voltage-dependent T-type calcium channel subunit alpha-1G (Homo sapiens, UniProt O43497) | = | 8.22
C[C@@H]1CN(Cc2ccc(C(F)(F)F)o2)c2cnccc2[C@H](C)N1C(=O)NCc1ccccc1 (racemic) | Voltage-dependent T-type calcium channel subunit alpha-1G (Homo sapiens, UniProt O43497) | = | 7.43
C[C@@H]1CN(Cc2ccccc2)c2ccccc2[C@H](C)N1C(=O)C1CCOCC1 (racemic) | Voltage-dependent T-type calcium channel subunit alpha-1G (Homo sapiens, UniProt O43497) | = | 7.62
C[C@@H]1CN(Cc2cccc(F)c2F)c2cnccc2[C@H](C)N1C(=O)NCc1ccccc1 (racemic) | Voltage-dependent T-type calcium channel subunit alpha-1G (Homo sapiens, UniProt O43497) | = | 7.42
C[C@@H]1CN(Cc2ccccc2)c2ccccc2[C@H](C)N1C(=O)NCc1ccccc1 | Voltage-dependent T-type calcium channel subunit alpha-1G (Homo sapiens, UniProt O43497) | = | 8.30
C[C@@H]1CN(Cc2ccccc2)c2ccc(F)cc2[C@H](C)N1C(=O)Nc1cccnc1 (racemic) | Voltage-dependent T-type calcium channel subunit alpha-1G (Homo sapiens, UniProt O43497) | = | 7.17
C[C@@H]1CN(Cc2cnc(C(F)(F)F)s2)c2ccccc2[C@H](C)N1C(=O)Nc1cccnc1 (racemic) | Voltage-dependent T-type calcium channel subunit alpha-1G (Homo sapiens, UniProt O43497) | = | 7.48
C[C@@H]1CN(Cc2ccccc2)c2ncc(Cl)cc2[C@H](C)N1C(=O)NCc1ccccc1 (racemic) | Voltage-dependent T-type calcium channel subunit alpha-1G (Homo sapiens, UniProt O43497) | = | 7.11
CCN1C[C@@H](C)N(C(=O)NCc2ccccc2)[C@@H](C)c2ccccc21 (racemic) | Voltage-dependent T-type calcium channel subunit alpha-1G (Homo sapiens, UniProt O43497) | = | 6.12
C[C@@H]1CN(Cc2ccccc2)c2cc(Br)ccc2[C@H](C)N1C(=O)Nc1cccnc1 (racemic) | Voltage-dependent T-type calcium channel subunit alpha-1G (Homo sapiens, UniProt O43497) | = | 6.54
C[C@@H]1CN(CC2CCCC2)c2ccccc2[C@H](C)N1C(=O)Nc1cccnc1 (racemic) | Voltage-dependent T-type calcium channel subunit alpha-1G (Homo sapiens, UniProt O43497) | = | 7.64
C[C@@H]1CN(Cc2ccccc2)c2nc(C(F)(F)F)ccc2[C@H](C)N1C(=O)NCc1ccccc1 (racemic) | Voltage-dependent T-type calcium channel subunit alpha-1G (Homo sapiens, UniProt O43497) | = | 7.24
C[C@@H]1CN(Cc2ccccc2)c2cnccc2[C@H](C)N1C(=O)NCc1ccccc1 (racemic) | Voltage-dependent T-type calcium channel subunit alpha-1G (Homo sapiens, UniProt O43497) | = | 6.85

Values compiled from ChEMBL document CHEMBL3864167.
